Kindly supply the reported IC50 values for the records listed here.
Biological target: IRAK4 (Homo sapiens)
Sequence (Q9NWZ3 1-460): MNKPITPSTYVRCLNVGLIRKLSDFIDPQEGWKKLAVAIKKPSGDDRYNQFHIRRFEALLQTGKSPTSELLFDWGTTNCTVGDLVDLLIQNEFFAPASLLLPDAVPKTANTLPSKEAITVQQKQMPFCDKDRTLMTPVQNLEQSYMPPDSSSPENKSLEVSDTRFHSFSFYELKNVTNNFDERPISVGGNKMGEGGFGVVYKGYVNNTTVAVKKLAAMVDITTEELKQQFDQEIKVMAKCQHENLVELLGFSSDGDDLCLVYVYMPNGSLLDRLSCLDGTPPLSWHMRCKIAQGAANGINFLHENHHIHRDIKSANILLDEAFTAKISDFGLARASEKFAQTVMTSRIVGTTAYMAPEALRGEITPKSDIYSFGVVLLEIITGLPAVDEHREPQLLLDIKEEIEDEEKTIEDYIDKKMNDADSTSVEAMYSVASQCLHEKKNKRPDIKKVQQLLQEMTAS
Experiment: biochemical
Conditions: IRAK4 Biochemical Assay (1 mM ATP, 2 h) IC50 (μM), 1 mM ATP, 2 h, 100 pM IRAK4
Counter-ions that a name gives are not always drawn.
Lab note: write values as number then unit, every time.

{"MOLECULE": "Cn1cccc(NC(=O)c2cn3cc(C4CC4)nc3c(OCCF)n2)c1=O [Example 637, trifluoroacetate]", "IC50": "0.0445 µM"}
{"MOLECULE": "COc1ncccc1NC(=O)c1cn2cc(C34COC(C)(C3)C4)nc2nc1OC(C)C [Example 305, trifluoroacetate]", "IC50": "0.0005 µM"}

Now for the molecule whose IC50 we want.
For record O=C(Nc1cccc(C(F)F)n1)c1cn2cc(C3CC3)nc2cc1OC1CC(F)(F)C1 the listed IC50 is 0.0088 µM

---

Target: IRAK4 (Homo sapiens, UniProt Q9NWZ3)
Experiment: 2-hour 10 μM ATP Biochemical Assay (MesoScale Detection format; IRAK4 phosphorylation of biotin labeled IRAK1 activation loop peptide)
Conditions: 0.1 nM IRAK4
READOUT_TYPE: pIC50
Give bare numbers, as −log10 of the molar value.

Consider the worked cases shown below.
{"COMPOUND": "COc1cc2nc(C3CCOCC3)cn2cc1C(=O)Nc1cccc(F)c1C", "pIC50": 7.80}
{"COMPOUND": "CCOc1cc2nc(C3CCOCC3)cn2cc1C(=O)Nc1cccc(C(F)F)n1", "pIC50": 9.00}
{"COMPOUND": "COc1cccc(NC(=O)c2cn3cc(CC(C)C#N)nc3cc2OC)n1 (stereo not drawn)", "pIC50": 7.49}
{"COMPOUND": "COc1cc2nc(C3CCOCC3)cn2cc1C(=O)Nc1cccc(C2CC2)c1", "pIC50": 6.16}
{"COMPOUND": "COc1cc2nc(C3CCOCC3)cn2cc1C(=O)Nc1ccccc1CC(C)C", "pIC50": 6.09}

Give me pIC50 for each of these compounds, listed below.
1. COc1cc2nc(C3CCOCC3)cn2cc1C(=O)NC1CCCC2(CC2)C1 (stereo not drawn)
2. COc1cc2nc(C3CCOCC3)cn2cc1C(=O)Nc1cc(F)ccc1OC(C)C

1: 6.18; 2: 7.10

Provide reported pIC50 for each item, in the same order as listed.
1. COc1cc2nc(C3CCOCC3)cn2cc1C(=O)Nc1cc(F)cc(Cl)c1
2. COc1cc2nc(C3CC4(CCOC4)C3)cn2cc1C(=O)Nc1cccc(C(F)(F)F)n1 (stereo not drawn)
3. COc1cc2nc(C3CCOCC3)cn2cc1C(=O)NC1CC(C)C1 (stereo not drawn)
4. COc1cc2nc(C3CCOCC3)cn2cc1C(=O)Nc1ccccc1OC(C)C

[7.68, 8.70, 6.20, 7.96]

Hi! Can you tell me pIC50 for each of these compounds?
1. COc1cc2nc(C3CCOCC3)cn2cc1C(=O)Nc1cc(C)cc(C)c1OC
2. COc1cc2nc(C3CCOCC3)cn2cc1C(=O)Nc1ccccn1

1: 6.51; 2: 8.05

For the 5 compounds below, give their pIC50 values.
1. COc1cc2nc(C3CCOCC3)cn2cc1C(=O)Nc1cccc(OC)c1C
2. COc1cccc(NC(=O)c2cn3cc(CC4CCOCC4)nc3cc2OC)n1
3. COc1cc(F)cc(NC(=O)c2cn3cc(C4CCOCC4)nc3cc2OC)c1
4. COc1cccc(NC(=O)c2cn3cc(C4(OC)CC4)nc3cc2OC)n1
5. COc1cc2nc(C3CCOCC3)cn2cc1C(=O)Nc1cc(F)c(F)c(C(F)F)c1

7.15
8.10
7.34
7.59
7.43

Lab note: each compound below needs its pIC50 filled in.
1. COc1cc2nc(C3CCOCC3)cn2cc1C(=O)NC1CCCC(F)C1 (stereo not drawn)
2. COc1cc2nc(C3CC(OC)C3)cn2cc1C(=O)Nc1cccc(C(F)(F)F)n1 (stereo not drawn)
3. COc1cccc(NC(=O)c2cn3cc(CC4COCCO4)nc3cc2OC)n1 (stereo not drawn)
4. COc1cc2nc(C3(OC)CC3)cn2cc1C(=O)Nc1cccc(C(F)(F)F)n1
5. COc1cc2nc(C3CCOC(C)(C)C3)cn2cc1C(=O)Nc1cccc(C(F)(F)F)n1 (stereo not drawn)
6. COc1cc2nc(C3CCOCC3)cn2cc1C(=O)Nc1cc(C)cc(C)n1

1: 6.14; 2: 8.10; 3: 7.51; 4: 7.24; 5: 8.70; 6: 6.70

// for each compound in input: emit pIC50
1. COc1cccc(NC(=O)c2ccc3nc(C4CCOCC4)cn3c2)n1
2. CCOc1cc2nc(CCCOC)cn2cc1C(=O)Nc1cccc(C(F)F)n1

[7.04, 9.00]

Return reported pIC50 values for all items listed beneath this line.
1. COc1cccc(NC(=O)c2cn3cc(C4CCOC4)nc3cc2OC)n1 (stereo not drawn)
2. COc1cc2nc(C3CCOCC3)cn2cc1C(=O)Nc1cccc(C(F)(F)F)c1C
3. COc1cc2nc(C3CCOCC3)cn2cc1C(=O)Nc1cc(C)cc(C)c1
4. COc1cc2nc(C3CCC(OC)C3)cn2cc1C(=O)Nc1cccc(C(F)(F)F)n1 (stereo not drawn)
5. COc1cc2nc(C3CCOCC3)cn2cc1C(=O)Nc1cscc1C

1: 7.60; 2: 7.85; 3: 6.52; 4: 8.30; 5: 7.85

The following compounds each have a reported value; give each one's pIC50.
1. COc1cccc(NC(=O)c2cn3cc(C4CCOCC4)nc3cc2OC)n1
2. COc1cc2nc(C3CCOCC3)cn2cc1C(=O)N[C@@]12CCC[C@@H]1C2 (racemic)
3. COc1cc2nc(C3CCOCC3)cn2cc1C(=O)Nc1cccc2c1C1CCC2O1 (stereo not drawn)
4. COc1cc2nc(C3CCOCC3)cn2cc1C(=O)Nc1cccc2c1CCC2

8.52
6.10
6.85
8.52

// pIC50 value for COc1cc2nc(C3CC4CCC(C3)O4)cn2cc1C(=O)Nc1cccc(C(F)(F)F)n1 (stereo not drawn) : 8.52
